# Test system: K-562
# run description: panel of 60 human tumor cell lines, growth inhibition (Leukemia)
# stated conditions: K-562; Log10 Concentration −7.0
measured parameter: Percent Growth (%)

compound | study target | measured parameter | measure unit | result
C=C1C(=O)O[C@H]2[C@H]1CC/C(COC(=O)NCCN1CCCCC1)=C\CC[C@@]1(C)O[C@@H]21 [JVM 2-13] | K-562 | Percent Growth | % | 95
C=C1C(=O)O[C@H]2[C@H]1CC/C(COC(=O)NC)=C\CC[C@@]1(C)O[C@@H]21 [JVM 2-57] | K-562 | Percent Growth | % | 92
C=C1C(=O)O[C@H]2[C@H]1CC/C(COC(=O)N1CCN(C)CC1)=C\CC[C@@]1(C)O[C@@H]21 [JVM 2-44] | K-562 | Percent Growth | % | 91
C=C1C(=O)O[C@H]2[C@H]1CC/C(COC(=O)CCC(=O)N1CCC(C)CC1)=C\CC[C@@]1(C)O[C@@H]21 [JVM 2-70] | K-562 | Percent Growth | % | 109
C=C1C(=O)O[C@H]2[C@H]1CC/C(COC(=O)N1CCC(F)(F)CC1)=C\CC[C@@]1(C)O[C@@H]21 [JVM 2-66] | K-562 | Percent Growth | % | 95
C=C1C(=O)O[C@H]2[C@H]1CC/C(COC(=O)NCCCCCCO)=C\CC[C@@]1(C)O[C@@H]21 [JVM 2-31] | K-562 | Percent Growth | % | 113

Provenance of the data: patent US9469650B2
